Hey, just so you know, these numbers are from the supplement of paper PMC4466140.

system name: SpBzz1-D2
assay summary: SPOT peptide array binding signal intensity (averaged, normalized) (arbitrary units (background-subtracted, floor 0; scale differs between SH3 domains)); higher = stronger binding of the SH3 domain to the peptide
The binders listed here are annotated with their SPOT peptide array binding signal intensity.
The response must contain the number and no unit.

Some solved entries appear below for comparison.
AGKRRLPLVRFKASD; 1
YVRRRPRVRLEPLLS; 4.62
RSKRLFPVRPMATAH; 0.5
FPGKKSPRLPHRNKK; 0.125
ATKSASPTLPTRRSR; 1
VNFRRIPTGPDSPPT; 0.25

input: SPOT peptide array binding signal intensity for LKVTPGRRAPTISKI ?
output: 1.25

input: SPOT peptide array binding signal intensity for KKIRLIFTYPSTVGR ?
output: 0.5

input: SPOT peptide array binding signal intensity for SGVRLPAPPPPPRRG ?
output: 1490

input: SPOT peptide array binding signal intensity for NFKRLLPRDPSEKSS ?
output: 0.5
